- tested_system: T1, XCR1-SMALP-GFP
- T1 sequence (P46094 whole entry, species assumed, looked up): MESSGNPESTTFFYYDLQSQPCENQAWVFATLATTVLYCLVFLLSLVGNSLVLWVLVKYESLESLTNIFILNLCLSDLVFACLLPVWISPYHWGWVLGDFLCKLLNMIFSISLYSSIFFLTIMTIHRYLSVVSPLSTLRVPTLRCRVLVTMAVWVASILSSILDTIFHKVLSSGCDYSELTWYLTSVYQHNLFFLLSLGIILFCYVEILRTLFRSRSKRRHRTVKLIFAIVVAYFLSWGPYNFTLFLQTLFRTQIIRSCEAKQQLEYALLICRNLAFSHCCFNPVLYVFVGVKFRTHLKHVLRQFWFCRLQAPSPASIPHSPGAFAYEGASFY
- assay_name: flow cytometry, yeast-displayed Fab, 25 nM XCR1-SMALP-GFP, after background subtraction
In plain terms, low Relative binding fold change compared to LIBC528116 (Fab), meaning strictly below 0.6 fold, gives Fulfilled, and everything else gives Not fulfilled.

Is Relative binding fold change compared to LIBC528116 (Fab) of LIBC680800-1 (yeast-displayed Fab) (Fab, V domains shown) VH: QVQLQESGPGLVKPSQTLSLTCTVSGGSIRRGGDYWAWIRQHPGKGLEWIGHIYQTGSTNYNPRFKGRATISVNTYKNQFSLKLSSVTAADTAVYYCARNYDTLTGYSYYYYGMDVWGQGTTVTVSS VL: DIQMTQSPSSLSASVGDRVTITCRASQSISSYLNWYQQKPGKAPKLLIYSARALSSGVPSRFSGSGSGTDFTLTISSLQPEDFATYYCQQYRKFPLTFGGGTKVEIKR strictly below 0.6 fold?
Fulfilled

Is Relative binding fold change compared to LIBC528116 (Fab) of LIBC680562-1 (yeast-displayed Fab) (Fab, V domains shown) VH: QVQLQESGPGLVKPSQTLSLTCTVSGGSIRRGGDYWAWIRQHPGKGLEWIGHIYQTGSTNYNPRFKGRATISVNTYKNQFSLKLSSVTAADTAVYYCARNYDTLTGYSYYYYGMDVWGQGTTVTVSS VL: DIQMTQSPSSLSASVGDRVTITCRASQSISSYLNWYQQKPGKAPKLLIYSARRLSSGVPSRFSGSGSGTDFTLTISSLQPEDFATYYCQQYAKSPITFGGGTKVEIKR strictly below 0.6 fold?
Not fulfilled

Is Relative binding fold change compared to LIBC528116 (Fab) of LIBC681593-1 (yeast-displayed Fab) (Fab, V domains shown) VH: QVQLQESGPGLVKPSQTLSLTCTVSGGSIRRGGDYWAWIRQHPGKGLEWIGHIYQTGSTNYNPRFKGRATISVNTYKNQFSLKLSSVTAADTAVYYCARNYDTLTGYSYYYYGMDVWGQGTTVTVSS VL: DIQMTQSPSSLSASVGDRVTITCRASQSISSYLNWYQQKPGKAPKLLIYNARRLGSGVPSRFSGSGSGTDFTLTISSLQPEDFATYYCQQYRSSPVTFGGGTKVEIKR strictly below 0.6 fold?
Not fulfilled

Is Relative binding fold change compared to LIBC528116 (Fab) of LIBC681594-1 (yeast-displayed Fab) (Fab, V domains shown) VH: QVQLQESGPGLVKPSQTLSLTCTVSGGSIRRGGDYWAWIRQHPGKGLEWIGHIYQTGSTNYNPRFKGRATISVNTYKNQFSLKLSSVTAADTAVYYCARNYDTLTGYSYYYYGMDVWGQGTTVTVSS VL: DIQMTQSPSSLSASVGDRVTITCRASQSISSYLNWYQQKPGKAPKLLIYKARKLSSGVPSRFSGSGSGTDFTLTISSLQPEDFATYYCQQFGSMPLTFGGGTKVEIKR strictly below 0.6 fold?
Not fulfilled

Is Relative binding fold change compared to LIBC528116 (Fab) of LIBC680574-1 (yeast-displayed Fab) (Fab, V domains shown) VH: QVQLQESGPGLVKPSQTLSLTCTVSGGSIRRGGDYWAWIRQHPGKGLEWIGHVYYTGSTKYNPSFKDRATISVNTYKNQFSLKLSSVTAADTAVYYCARNYDTLTGYSYYYYGMDVWGQGTTVTVSS VL: DIQMTQSPSSLSASVGDRVTITCRASQSISSYLNWYQQKPGKAPKLLIYGARRLGSGVPSRFSGSGSGTDFTLTISSLQPEDFATYYCQQYSSLPVTFGGGTKVEIKR strictly below 0.6 fold?
Fulfilled
